Value source: ChEMBL document CHEMBL5291721

Biological target: Adenosine receptor A1 (Homo sapiens); also: assay procedure not described here
Sequence (P30542 whole entry): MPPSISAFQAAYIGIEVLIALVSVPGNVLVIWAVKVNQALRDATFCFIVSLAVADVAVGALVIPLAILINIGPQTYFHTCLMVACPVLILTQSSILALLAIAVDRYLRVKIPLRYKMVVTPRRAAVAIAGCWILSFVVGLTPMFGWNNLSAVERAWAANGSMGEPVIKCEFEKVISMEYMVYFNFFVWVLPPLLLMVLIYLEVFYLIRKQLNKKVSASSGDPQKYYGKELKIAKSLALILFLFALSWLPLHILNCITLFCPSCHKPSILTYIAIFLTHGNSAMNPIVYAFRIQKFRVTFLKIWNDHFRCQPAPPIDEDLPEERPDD
observationType: AC50

> print(dat)
                                   molecule                    targetortestsystem  observationtype  measurement
1  COC(=O)CCc1ccc(OCC(O)CNC(C)C)cc1 (configuration not stated) [ESMOLOL]  Adenosine receptor A1 (Homo sapiens)             AC50      > 30 µM
2  CCC(NC(C)C)C(O)c1ccc(O)c(O)c1 (configuration not stated) [ISOETHARINE]  Adenosine receptor A1 (Homo sapiens)             AC50      > 30 µM
3  COc1cccc2c1C(=O)c1c(O)c3c(c(O)c1C2=O)C[C@@](O)(C(=O)CO)C[C@@H]3O[C@H]1C[C@H](N)[C@H](O)[C@H](C)O1 [DOXORUBICIN]  Adenosine receptor A1 (Homo sapiens)             AC50      > 30 µM
4  CCC1(CC)C(=O)NC(=O)N(C)C1=O [METHARBITAL]  Adenosine receptor A1 (Homo sapiens)             AC50      > 10 µM
5    CCC1(c2ccccc2)C(=O)NCNC1=O [PRIMIDONE]  Adenosine receptor A1 (Homo sapiens)             AC50      > 10 µM
6  O=C(O)[C@H]1/C(=C/CO)O[C@@H]2CC(=O)N21 [CLAVULANIC ACID]  Adenosine receptor A1 (Homo sapiens)             AC50      > 30 µM

Now for the molecule whose AC50 we want.
Please report the measured AC50 for CC1=C(C(=O)O)N2C(=O)[C@@H](NC(=O)[C@H](N)C3=CCC=CC3)[C@H]2SC1 [CEPHRADINE] > 30 µM

----------
The following molecules are listed with their measured AC50 values.
Target: Amine oxidase [flavin-containing] A (Homo sapiens); also: assay procedure not described here
Sequence (P21397 whole entry): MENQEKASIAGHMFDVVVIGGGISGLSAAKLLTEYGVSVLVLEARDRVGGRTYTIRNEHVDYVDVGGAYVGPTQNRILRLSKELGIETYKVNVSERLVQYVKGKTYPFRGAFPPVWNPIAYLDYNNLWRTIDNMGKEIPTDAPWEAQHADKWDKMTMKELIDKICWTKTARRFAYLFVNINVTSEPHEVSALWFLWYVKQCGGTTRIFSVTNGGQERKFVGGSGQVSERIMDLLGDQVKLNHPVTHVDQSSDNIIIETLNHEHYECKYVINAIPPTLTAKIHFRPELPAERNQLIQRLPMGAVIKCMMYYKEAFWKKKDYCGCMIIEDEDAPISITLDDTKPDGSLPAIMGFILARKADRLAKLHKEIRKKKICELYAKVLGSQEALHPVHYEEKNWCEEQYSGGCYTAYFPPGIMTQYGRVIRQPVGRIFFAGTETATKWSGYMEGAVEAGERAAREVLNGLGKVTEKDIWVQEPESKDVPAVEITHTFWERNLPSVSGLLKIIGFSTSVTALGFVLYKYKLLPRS
Type: functional

> print(dat)
                                 molecule  observationtype  measurement
1  O=C(O)[C@H]1/C(=C/CO)O[C@@H]2CC(=O)N21             AC50      > 30 µM

Report value only: AC50, Amine oxidase [flavin-containing] A (Homo sapiens), `CC(C)(CO)c1cc2cc(NC(=O)C3(c4ccc5c(c4)OC(F)(F)O5)CC3)c(F)cc2n1C[C@@H](O)CO` > 30 µM

Determine reported AC50 for N=C(N)NC(=O)c1nc(Cl)c(N)nc1N [AMILORIDE] ; test system: Amine oxidase [flavin-containing] A (Homo sapiens). 4.41 µM

Report value only: AC50, Amine oxidase [flavin-containing] A (Homo sapiens), O=C(C[S+]([O-])Cc1ccco1)NC/C=C\COc1cc(CN2CCCCC2)ccn1 (centres undefined) > 10 µM

Look up Amine oxidase [flavin-containing] A (Homo sapiens) data: AC50 of `COc1cccc2c1C(=O)c1c(O)c3c(c(O)c1C2=O)C[C@@](O)(C(=O)CO)C[C@@H]3O[C@H]1C[C@H](N)[C@H](O)[C@H](C)O1` , then report it. > 30 µM

Give AC50 for COc1cc(C(=O)NCc2ccc(OCCN(C)C)cc2)cc(OC)c1OC [TRIMETHOBENZAMIDE] tested on Amine oxidase [flavin-containing] A (Homo sapiens). > 30 µM

Quote AC50 with test system Amine oxidase [flavin-containing] A (Homo sapiens) for CCC(NC(C)C)C(O)c1ccc(O)c(O)c1 (centres undefined) > 30 µM

Consider the molecule `O=C1CN=C(c2ccccc2Cl)c2cc([N+](=O)[O-])ccc2N1` tested on Amine oxidase [flavin-containing] A (Homo sapiens); state its AC50. > 10 µM

Provide Amine oxidase [flavin-containing] A (Homo sapiens) AC50 reading for CS(=O)(=O)Nc1ccc([N+](=O)[O-])cc1Oc1ccccc1 [NIMESULIDE] . > 30 µM

Give the observed AC50 of `C[C@]12CCC(=O)C=C1C=C[C@@H]1[C@@H]2CC[C@@]2(C)[C@H]1CC[C@@]21CCC(=O)O1` for Amine oxidase [flavin-containing] A (Homo sapiens). > 30 µM

Supply AC50 measured with Amine oxidase [flavin-containing] A (Homo sapiens) for Nc1c2c(nc3ccccc13)CCCC2O (centres undefined) . > 30 µM

Supply AC50 measured with Amine oxidase [flavin-containing] A (Homo sapiens) for CN(C)CCC(O)(c1ccccc1)c1ccccc1Cl (centres undefined) . > 10 µM

Send back Amine oxidase [flavin-containing] A (Homo sapiens) AC50 of `CC(C)(N)Cc1ccccc1` only. > 10 µM

Under Amine oxidase [flavin-containing] A (Homo sapiens), report AC50 for CC1NCCOC1c1ccccc1 (centres undefined) > 10 µM

Report AC50 under test system Amine oxidase [flavin-containing] A (Homo sapiens) for `CCn1c(=O)c2c(nc(/C=C/c3ccc(OC)c(OC)c3)n2C)n(CC)c1=O` . > 30 µM

Find AC50 for CCN1C(=O)NC(c2ccccc2)C1=O (centres undefined) on Amine oxidase [flavin-containing] A (Homo sapiens) and write it down. > 30 µM

----------
Target: Adenosine receptor A3 (Homo sapiens); also: assay procedure not described here
Sequence (P0DMS8 whole entry): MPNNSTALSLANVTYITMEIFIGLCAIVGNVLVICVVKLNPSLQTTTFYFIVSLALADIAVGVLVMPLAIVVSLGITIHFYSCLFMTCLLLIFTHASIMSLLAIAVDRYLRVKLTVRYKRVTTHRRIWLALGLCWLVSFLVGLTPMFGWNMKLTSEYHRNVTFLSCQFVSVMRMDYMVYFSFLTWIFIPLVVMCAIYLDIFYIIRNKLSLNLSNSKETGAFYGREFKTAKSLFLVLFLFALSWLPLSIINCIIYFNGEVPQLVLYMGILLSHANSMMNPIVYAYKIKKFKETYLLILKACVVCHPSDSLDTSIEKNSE
observationType: AC50

Example results:
> print(dat)
                             chemicalsmiles  observationtype  measurement
1             Nc1cc(N2CCCCC2)nc(N)[n+]1[O-]             AC50      > 30 µM
2  C[C@H](CCC(=O)O)[C@H]1CC[C@H]2[C@@H]3[C@H](O)C[C@@H]4C[C@H](O)CC[C@]4(C)[C@H]3CC[C@]12C             AC50      > 30 µM

Attention now turns to another entry.
Determine from records and report AC50 for `CCCCOC(=O)c1ccc(N)cc1` > 30 µM

----------
Target: Amine oxidase [flavin-containing] A (Homo sapiens); also: assay procedure not described here
Assay type: functional
observationType: AC50

# annotated cases, reported AC50 shown
> print(dat)
                                   compound  measurement
1  Clc1ccc(COC(Cn2ccnc2)c2ccc(Cl)cc2Cl)c(Cl)c1 (stereo not drawn)      > 10 µM
2       CN(C)CCOCC(=O)NC12CC3CC(CC(C3)C1)C2      > 30 µM
3  COc1ccc2c3c1O[C@H]1C(=O)CC[C@H]4[C@@H](C2)N(C)CC[C@]314 [HYDROCODONE]      > 10 µM
4  CNC1(C)C2CCC(C2)C1(C)C (stereo not drawn)      > 10 µM
5  Cc1ccc(S(=O)(=O)NC(=O)N[C@H]2[C@H]3CC[C@@](C)([C@H]2O)C3(C)C)cc1 [GLIBORNURIDE]      > 30 µM

Please give the documented AC50 of CCOC(=O)O[C@]1(C(=O)COC(=O)CC)CC[C@H]2[C@@H]3CCC4=CC(=O)C=C[C@]4(C)[C@H]3[C@@H](O)C[C@@]21C [PREDNICARBATE] > 10 µM

Using the record for `NCCCCCC(=O)O` , state its measured AC50. > 10 µM

Tell me its AC50 given `NCCCNCCSP(=O)(O)O` as the entry. > 30 µM

----------
Adenosine receptor A3 (Homo sapiens, UniProt P0DMS8) measurements of AC50, listed per entry. Also: assay procedure not described here.

A selection of reference data follows.
> print(dat)
                                   compound                        targetortestsystem  measurement
1                CN1CCCN=C1/C=C/c1cccc(O)c1  Adenosine receptor A3 (Homo sapiens, UniProt P0DMS8)        22 µM
2                         CC(C)(N)Cc1ccccc1  Adenosine receptor A3 (Homo sapiens, UniProt P0DMS8)      > 30 µM
3  O=C(c1ccccc1)c1ccc2n1CCC2C(=O)O (stereo not given)  Adenosine receptor A3 (Homo sapiens, UniProt P0DMS8)      > 10 µM
4  COc1ccc(C(Cl)=C(c2ccc(OC)cc2)c2ccc(OC)cc2)cc1  Adenosine receptor A3 (Homo sapiens, UniProt P0DMS8)        28 µM
5  C[C@]12C=CC(=O)C=C1CC[C@@H]1[C@@H]2[C@@H](O)C[C@@]2(C)[C@H]1CC[C@]2(O)C(=O)CO  Adenosine receptor A3 (Homo sapiens, UniProt P0DMS8)      > 30 µM

Give reported AC50 for `CC(C)C[C@H](NC(=O)[C@H](Cc1ccccc1)NC(=O)c1cnccn1)B(O)O` (Adenosine receptor A3 (Homo sapiens, UniProt P0DMS8)) > 30 µM

Print Adenosine receptor A3 (Homo sapiens, UniProt P0DMS8) AC50 for `CCN(CC)CCCN(c1ccccc1)C1Cc2ccccc2C1` . > 30 µM

// fetch AC50 for `CN(C)CCc1c[nH]c2ccc(CS(=O)(=O)N3CCCC3)cc12` ; system: Adenosine receptor A3 (Homo sapiens, UniProt P0DMS8) > 30 µM

Give Adenosine receptor A3 (Homo sapiens, UniProt P0DMS8) AC50 for the following compound: `Cc1ccc(-c2ncc(Cl)cc2-c2ccc(S(C)(=O)=O)cc2)cn1` > 10 µM
